Readings of IC50 for the listed compounds
# STUDY TARGET: skeletal myofibrils (myosin ATPase)
# TEST DESCRIPTION: Skeletal Myofibril ATPase Assay
# Format: biochemical
# CONDITION SET: Table 4C

Answered examples (4):
{"columns": ["COMPOUND", "STUDY TARGET", "IC50"],
 "data": [
  ["COc1ccc(-c2ccc(=O)n(CC(=O)NC3CC3)n2)c(F)c1", "skeletal myofibrils (myosin ATPase)", "> 100 µM"],
  ["COc1ccc(-c2ccc(=O)n(CC(=O)NC3CC3)n2)cc1", "skeletal myofibrils (myosin ATPase)", "10 to 100 µM"],
  ["COc1ccc(-c2ccc(=O)n(CC(=O)NC3CCCC3)n2)cc1", "skeletal myofibrils (myosin ATPase)", "10 to 100 µM"],
  ["COc1ccc(-c2ccc(=O)n(CC(=O)Nc3cccc(Cl)c3)n2)cc1", "skeletal myofibrils (myosin ATPase)", "> 100 µM"]
]}

Field IC50 (entry COc1ccc(-c2ccc(=O)n(CC(=O)Nc3cc(OC)ccc3OC)n2)cc1 ) reads 10 to 100 µM

Field IC50 (entry O=C(Cn1nc(-c2ccccc2)ccc1=O)NCCC1=CCCCC1 ) reads < 10 µM

Field IC50 (entry COc1ccc(-c2ccc(=O)n(CC(=O)Nc3ccc(Cl)cc3Cl)n2)cc1 ) reads < 10 µM

Field IC50 (entry CCC1CCC(CNC(=O)Cn2nc(-c3ccccc3)ccc2=O)CC1 (stereo not shown) ) reads 10 to 100 µM

Field IC50 (entry Cc1ccc(-c2ccc(=O)n(CC(=O)NC3CCCC3)n2)cc1 ) reads 10 to 100 µM

Field IC50 (entry COc1ccc(-c2ccc(=O)n(CC(=O)NCc3ccccc3OC)n2)cc1 ) reads 10 to 100 µM
